assay: Basal toxicity against mouse […] NIH/3T3 cells incubated for 48 hrs by neutral red dye uptake assay; assay type: cell-based, NIH3T3; details: read-out: TC50
CC50 at 48 h values for the compounds below.
Experimental Readout: CC50 at 48 h

substance_smiles=CCCCCCCC/C=C\c1c(C)cc(C)[n+]2c1CCC2 experimental_readout="CC50 at 48 h" obs_value="1.9 µM"
substance_smiles=CCCCCCCC/C=C\c1c(C)c(/C=C/CCCCCCCC)c(C)[n+]2c1CCC2 experimental_readout="CC50 at 48 h" obs_value="3.2 µM"
substance_smiles=CCCCCCCC/C=C\c1c(C)cc2[n+](c1C)CCC2 experimental_readout="CC50 at 48 h" obs_value="4.2 µM"
substance_smiles=CCCCCCCC/C=C\c1c(C)c(/C=C/CCCCCCCC)c2[n+](c1C)CCC2 experimental_readout="CC50 at 48 h" obs_value="3.7 µM"
substance_smiles=CCCCCCCCCCc1c(C)cc2[n+](c1C)CCC2 experimental_readout="CC50 at 48 h" obs_value="7 µM"
substance_smiles=CCCCCCCCCCc1c(C)cc(C)[n+]2c1CCC2 experimental_readout="CC50 at 48 h" obs_value="3.2 µM"
substance_smiles=CCCCCCCC/C=C/c1c(C)cc(C)[n+]2c1CCC2 experimental_readout="CC50 at 48 h" obs_value="1.9 µM"
substance_smiles=CCCCCCCC/C=C/c1c(C)cc2[n+](c1C)CCC2 experimental_readout="CC50 at 48 h" obs_value="4.3 µM"

###

tested on: PC-3; assay: Antiproliferative activity against human PC3 cells incubated for 72 hrs by WST1 dye reduction assay; type: functional; settings: PC-3, 72 h, read-out: ED50 (the source's name)
Experimental Readout: EC50 (nM)

substance_smiles=CCCCCCCC/C=C\c1c(C)cc2[n+](c1C)CCC2 measurement_unit=nM qualifier_symbol== obs_value=500
substance_smiles=CCCCCCCC/C=C/c1c(C)c(/C=C/CCCCCCCC)c2[n+](c1C)CCC2 measurement_unit=nM qualifier_symbol== obs_value=600
substance_smiles=CCCCCCCCCCc1c(C)cc2[n+](c1C)CCC2 measurement_unit=nM qualifier_symbol== obs_value=1500
substance_smiles=CCCCCCCC/C=C\c1c(C)c(/C=C\CCCCCCCC)c2[n+](c1C)CCC2.O=C([O-])C(F)(F)F measurement_unit=nM qualifier_symbol== obs_value=1100
substance_smiles=CCCCCCCC/C=C/c1c(C)cc(C)[n+]2c1CCC2 measurement_unit=nM qualifier_symbol== obs_value=600
substance_smiles=CCCCCCCC/C=C\c1c(C)cc(C)nc1C measurement_unit=nM qualifier_symbol=> obs_value=30000
substance_smiles=CCCCCCCC/C=C\c1c(C)c(/C=C/CCCCCCCC)c2[n+](c1C)CCC2 measurement_unit=nM qualifier_symbol== obs_value=500
substance_smiles=CCCCCCCC/C=C\c1c(C)cc(C)[n+]2c1CCC2 measurement_unit=nM qualifier_symbol== obs_value=200
substance_smiles=CCCCCCCC/C=C\c1c(C)nc(CCCOC)c(/C=C\CCCCCCCC)c1C measurement_unit=nM qualifier_symbol=> obs_value=30000
substance_smiles=CCCCCCCC/C=C\c1c(C)cc(CCCOC)nc1C measurement_unit=nM qualifier_symbol=> obs_value=30000
substance_smiles=CCCCCCCCCCc1c(C)cc(C)[n+]2c1CCC2 measurement_unit=nM qualifier_symbol== obs_value=900

###

pEC50 values for the molecules below.
test system: PC-3; experiment: Antiproliferative activity against human PC3 cells incubated for 72 hrs by WST1 dye reduction assay; type: functional; settings: PC-3, 72 h, read-out: ED50 (the source's name)
pEC50: −log10 of the molar value.
Experimental Readout: pEC50

substance_smiles=CCCCCCCC/C=C\c1c(C)c(/C=C\CCCCCCCC)c2[n+](c1C)CCCCC2.[Cl-] qualifier_symbol== obs_value=6.52
substance_smiles=CCCCCCCC/C=C\c1c(C)nc(C)c(/C=C\CCCCCCCC)c1C qualifier_symbol=< obs_value=4.52
substance_smiles=CCCCCCCC/C=C/c1c(C)cc2[n+](c1C)CCC2 qualifier_symbol== obs_value=6.70
substance_smiles=CCCCCCCCCCc1c(C)c(CCCCCCCCCC)c2[n+](c1C)CCC2 qualifier_symbol== obs_value=6.22
substance_smiles=CCCCCCCC/C=C\c1c(C)cc(C)nc1CCCOC qualifier_symbol=< obs_value=4.52
substance_smiles=CCCCCCCC/C=C\c1c(C)c(/C=C\CCCCCCCC)c2[n+](c1C)CCCC2 qualifier_symbol== obs_value=6.52
substance_smiles=CCCCCCCC/C=C\c1c(C)c(/C=C/CCCCCCCC)c(C)[n+]2c1CCC2 qualifier_symbol== obs_value=6.15

###

biological target: C-C chemokine receptor type 5 (Homo sapiens, UniProt P51681); test: Antagonist activity at CCR5 receptor in human MOLT4 cells assessed as inhibition of chemokine-induced calcium mobilization using Fluo-4-AM dye based fluorometric assay
Sequence (P51681 whole entry): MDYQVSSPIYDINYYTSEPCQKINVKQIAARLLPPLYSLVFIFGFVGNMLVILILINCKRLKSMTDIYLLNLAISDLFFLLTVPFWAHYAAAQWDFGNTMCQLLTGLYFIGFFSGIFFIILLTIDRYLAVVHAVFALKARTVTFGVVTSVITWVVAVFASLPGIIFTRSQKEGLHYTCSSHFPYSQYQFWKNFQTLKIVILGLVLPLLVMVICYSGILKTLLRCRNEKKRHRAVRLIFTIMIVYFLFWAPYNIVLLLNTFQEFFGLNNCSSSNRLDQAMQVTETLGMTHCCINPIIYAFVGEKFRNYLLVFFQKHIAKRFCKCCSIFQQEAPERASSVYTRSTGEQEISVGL
Experimental Readout: IC50 (µM)

substance_smiles=CCCCCCCC/C=C\c1c(C)cc(CCCOC)nc1C measurement_unit=µM qualifier_symbol=> obs_value=30
substance_smiles=CCCCCCCCCCc1c(C)cc2[n+](c1C)CCC2 measurement_unit=µM qualifier_symbol== obs_value=16.4
substance_smiles=CCCCCCCC/C=C/c1c(C)cc2[n+](c1C)CCC2 measurement_unit=µM qualifier_symbol== obs_value=13.7
substance_smiles=CCCCCCCC/C=C\c1c(C)nc(CCCOC)c(/C=C\CCCCCCCC)c1C measurement_unit=µM qualifier_symbol=> obs_value=30
substance_smiles=CCCCCCCC/C=C\c1c(C)cc(C)nc1CCCOC measurement_unit=µM qualifier_symbol=> obs_value=30
substance_smiles=CCCCCCCC/C=C/c1c(C)cc(C)[n+]2c1CCC2 measurement_unit=µM qualifier_symbol== obs_value=9.2
substance_smiles=CCCCCCCCCCc1c(C)cc(C)[n+]2c1CCC2 measurement_unit=µM qualifier_symbol== obs_value=10.5
substance_smiles=CCCCCCCC/C=C\c1c(C)cc(C)nc1C measurement_unit=µM qualifier_symbol=> obs_value=30
